Target protein (sequence): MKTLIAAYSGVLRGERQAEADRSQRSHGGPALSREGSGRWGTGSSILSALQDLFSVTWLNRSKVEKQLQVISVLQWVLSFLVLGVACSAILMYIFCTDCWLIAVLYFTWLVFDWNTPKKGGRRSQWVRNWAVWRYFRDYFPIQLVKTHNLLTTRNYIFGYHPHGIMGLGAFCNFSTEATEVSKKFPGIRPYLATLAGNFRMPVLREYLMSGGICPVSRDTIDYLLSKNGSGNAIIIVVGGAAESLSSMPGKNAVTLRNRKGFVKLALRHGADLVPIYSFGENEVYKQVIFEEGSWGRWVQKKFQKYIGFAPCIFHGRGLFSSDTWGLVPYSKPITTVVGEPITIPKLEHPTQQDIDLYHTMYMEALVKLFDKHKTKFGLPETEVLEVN
pIC50: −log10 of the molar value.
test readout: pIC50

[[record]]
smiles_code = "O=C(NC1CN(C(=O)C(F)(F)F)C1)c1nc2ccc(Oc3ncc(Cl)cc3OCC(F)(F)F)cc2o1"
test_readout = "pIC50"
assay_value = 5.99

